// data source = patent US20240409617A1

# STUDY_TARGET: D614G Spike (SARS-CoV2)
Measured Response by item
// no unit, no text: just the number

// field: Response; key: RBD-R3-E1-B3 Ab (Ab_32) scFv-Fc (scFv, V domains shown) VH: QVQLVQSGAEVKKPGESLKISCKGSGYSFTSYWIGWVRQMPGKGLEWMGIIYPGDSDTRYSPSFQGQVTISADKSISTAYLQWSSLKASDTAMYYCARGWQWHDYWGQGTLVTVSS VL: QTVVTQEPAVSVALGQTVRITCQGDSLRSYYASWYQQKPGQAPVLVVYDKDKRPSGIPDRFSGSTSGNTASLTITGAQAEDEADYYCNSRDRSDNHVVFGGGTKLTVL ; value = 0.204

Here's the next entry for you.
Documented Response of RBD-R3-E1-A5 Ab (Ab_30) scFv-Fc (scFv, V domains shown) VH: QVQLVQSGGGVVQPGKSLRLSCTASGFTFSDFPIHWVRQAPGKGLEWVGVISYDGNIKYYGDSVKGRFTISRDNAKNSLYLQMNSLRVEDTAVYYCARGGSSFDIWGQGTTVTVSS VL: SYELTQPPSVSEAPRQRVTISCSGSTSNIGNNAVSWYQHLPGKAPKLLIYYNERLPSGVSDRFSGSKSGTSASLAISGLRSEDEADYYCAAWDDSLSGHVVFGGGTKLTVL : 0.179
